- Test system: Staphylococcus aureus
- ASSAY_DETAILS: Compound was evaluated for minimum inhibitory concentration against Staphylococcus aureus 975 strain
- Type: functional
OUTCOME_MEASURE: MIC (µg/mL)
Report as a plain number; the unit µg/mL is understood.

Please look at CC(=O)NC[C@H]1CN(c2ccc(N3CCN(C(c4ccccc4)c4ccccc4)CC3)c(F)c2)C(=O)O1 and tell me its recorded MIC on Staphylococcus aureus.
4

Please look at CC(=O)NC[C@H]1CN(c2ccc(N3CCOCC3)c(F)c2)C(=O)O1 and tell me its recorded MIC on Staphylococcus aureus.
0.25

Please look at CC(=O)NC[C@H]1CN(c2ccc(N3CCN(c4ccc(F)cc4)CC3)c(F)c2)C(=O)O1 and tell me its recorded MIC on Staphylococcus aureus.
0.5

Please look at CC(=O)NC[C@H]1CN(c2ccc(N3CCN(c4ccccc4)CC3)c(F)c2)C(=O)O1 and tell me its recorded MIC on Staphylococcus aureus.
1

Please look at COc1ccc(N2CCN(c3ccc(N4C[C@H](CNC(C)=O)OC4=O)cc3F)CC2)cc1 and tell me its recorded MIC on Staphylococcus aureus.
1

###

Kindly state MIC for each of the entries shown.
- System: Streptococcus pneumoniae
- ASSAY_DETAILS: Compound was evaluated for minimum inhibitory concentration against Streptococcus pneumoniae 9753 strain
- Type: functional
Report as a plain number; the unit µg/mL is understood.

Name the recorded MIC of the molecule listed here: CC(=O)NC[C@H]1CN(c2ccc(N3CCN(c4ccc(F)cc4)CC3)c(F)c2)C(=O)O1
1

Name the recorded MIC of the molecule listed here: CC(=O)NC[C@H]1CN(c2ccc(N3CCN(C(c4ccccc4)c4ccccc4)CC3)c(F)c2)C(=O)O1
4

Name the recorded MIC of the molecule listed here: COc1ccc(N2CCN(c3ccc(N4C[C@H](CNC(C)=O)OC4=O)cc3F)CC2)cc1
1

Name the recorded MIC of the molecule listed here: CC(=O)NC[C@H]1CN(c2ccc(N3CCN(c4ccccc4)CC3)c(F)c2)C(=O)O1
0.5

###

- System: Staphylococcus aureus
- ASSAY_DETAILS: Compound was evaluated for minimum inhibitory concentration against Staphylococcus aureus 9776 strain
- Format: functional
OUTCOME_MEASURE: MIC (µg/mL)
Report as a plain number; the unit µg/mL is understood.

Name the recorded MIC of the compound listed here: CC(=O)NC[C@H]1CN(c2ccc(N3CCN(c4ccccc4)CC3)c(F)c2)C(=O)O1
1

Name the recorded MIC of the compound listed here: COc1ccc(N2CCN(c3ccc(N4C[C@H](CNC(C)=O)OC4=O)cc3F)CC2)cc1
1

Name the recorded MIC of the compound listed here: CC(=O)NC[C@H]1CN(c2ccc(N3CCOCC3)c(F)c2)C(=O)O1
0.5

Name the recorded MIC of the compound listed here: CC(=O)NC[C@H]1CN(c2ccc(N3CCN(C(c4ccccc4)c4ccccc4)CC3)c(F)c2)C(=O)O1
8

Name the recorded MIC of the compound listed here: CC(=O)NC[C@H]1CN(c2ccc(N3CCN(c4ccc(F)cc4)CC3)c(F)c2)C(=O)O1
1

###

Kindly state MIC for each of the entries shown.
- System: Streptococcus pneumoniae
- ASSAY_DETAILS: Compound was evaluated for minimum inhibitory concentration against Streptococcus pneumoniae 9798 strain
- Format: functional
Report as a plain number; the unit µg/mL is understood.

Name the recorded MIC of the compound listed here: CC(=O)NC[C@H]1CN(c2ccc(N3CCN(c4ccccc4)CC3)c(F)c2)C(=O)O1
1

Name the recorded MIC of the compound listed here: COc1ccc(N2CCN(c3ccc(N4C[C@H](CNC(C)=O)OC4=O)cc3F)CC2)cc1
1

Name the recorded MIC of the compound listed here: CC(=O)NC[C@H]1CN(c2ccc(N3CCN(c4ccc(F)cc4)CC3)c(F)c2)C(=O)O1
1

Name the recorded MIC of the compound listed here: CC(=O)NC[C@H]1CN(c2ccc(N3CCN(C(c4ccccc4)c4ccccc4)CC3)c(F)c2)C(=O)O1
8

###

- Tested on: Staphylococcus aureus
- ASSAY_DETAILS: Compound was evaluated for minimum inhibitory concentration against Staphylococcus aureus 966 strain
- Type: functional
Kindly state MIC for each of the entries shown.
Report as a plain number; the unit µg/mL is understood.

Name the recorded MIC of the molecule listed here: CC(=O)NC[C@H]1CN(c2ccc(N3CCN(C(c4ccccc4)c4ccccc4)CC3)c(F)c2)C(=O)O1
8

Name the recorded MIC of the molecule listed here: CC(=O)NC[C@H]1CN(c2ccc(N3CCN(c4ccccc4)CC3)c(F)c2)C(=O)O1
2

Name the recorded MIC of the molecule listed here: CC(=O)NC[C@H]1CN(c2ccc(N3CCOCC3)c(F)c2)C(=O)O1
0.5

Name the recorded MIC of the molecule listed here: CC(=O)NC[C@H]1CN(c2ccc(N3CCN(c4ccc(F)cc4)CC3)c(F)c2)C(=O)O1
1

Name the recorded MIC of the molecule listed here: COc1ccc(N2CCN(c3ccc(N4C[C@H](CNC(C)=O)OC4=O)cc3F)CC2)cc1
2

###

- Tested on: Staphylococcus aureus
- ASSAY_DETAILS: Compound was evaluated for minimum inhibitory concentration against Staphylococcus aureus 9616 strain
- Format: functional
OUTCOME_MEASURE: MIC (mg/L)
Report as a plain number; the unit mg/L is understood.

Name the recorded MIC of the compound listed here: CC(=O)NC[C@H]1CN(c2ccc(N3CCOCC3)c(F)c2)C(=O)O1 [LINEZOLID]
1

Name the recorded MIC of the compound listed here: CC(=O)NC[C@H]1CN(c2ccc(N3CCN(C(c4ccccc4)c4ccccc4)CC3)c(F)c2)C(=O)O1
8

Name the recorded MIC of the compound listed here: CC(=O)NC[C@H]1CN(c2ccc(N3CCN(c4ccccc4)CC3)c(F)c2)C(=O)O1
1

Name the recorded MIC of the compound listed here: CC(=O)NC[C@H]1CN(c2ccc(N3CCN(c4ccc(F)cc4)CC3)c(F)c2)C(=O)O1
2

Name the recorded MIC of the compound listed here: COc1ccc(N2CCN(c3ccc(N4C[C@H](CNC(C)=O)OC4=O)cc3F)CC2)cc1
1

###

- System: Streptococcus sp.
- ASSAY_DETAILS: Compound was evaluated for minimum inhibitory concentration against Streptococcus A 44 strain
- Assay type: functional
OUTCOME_MEASURE: MIC (µg/mL)
Report as a plain number; the unit µg/mL is understood.

Name the recorded MIC of the compound listed here: COc1ccc(N2CCN(c3ccc(N4C[C@H](CNC(C)=O)OC4=O)cc3F)CC2)cc1
1

Name the recorded MIC of the compound listed here: CC(=O)NC[C@H]1CN(c2ccc(N3CCN(c4ccccc4)CC3)c(F)c2)C(=O)O1
2

Name the recorded MIC of the compound listed here: CC(=O)NC[C@H]1CN(c2ccc(N3CCN(C(c4ccccc4)c4ccccc4)CC3)c(F)c2)C(=O)O1
32

Name the recorded MIC of the compound listed here: CC(=O)NC[C@H]1CN(c2ccc(N3CCN(c4ccc(F)cc4)CC3)c(F)c2)C(=O)O1
1

Name the recorded MIC of the compound listed here: CC(=O)NC[C@H]1CN(c2ccc(N3CCOCC3)c(F)c2)C(=O)O1 [LINEZOLID]
0.5

###

- Test system: Staphylococcus aureus
- ASSAY_DETAILS: Compound was evaluated for minimum inhibitory concentration against Staphylococcus aureus 9721 strain
- Format: functional
Kindly state MIC for each of the entries shown.

Please look at COc1ccc(N2CCN(c3ccc(N4C[C@H](CNC(C)=O)OC4=O)cc3F)CC2)cc1 and tell me its recorded MIC on Staphylococcus aureus.
1 µg/mL

Please look at CC(=O)NC[C@H]1CN(c2ccc(N3CCN(c4ccccc4)CC3)c(F)c2)C(=O)O1 and tell me its recorded MIC on Staphylococcus aureus.
1 µg/mL

Please look at CC(=O)NC[C@H]1CN(c2ccc(N3CCOCC3)c(F)c2)C(=O)O1 [LINEZOLID] and tell me its recorded MIC on Staphylococcus aureus.
0.5 µg/mL

Please look at CC(=O)NC[C@H]1CN(c2ccc(N3CCN(c4ccc(F)cc4)CC3)c(F)c2)C(=O)O1 and tell me its recorded MIC on Staphylococcus aureus.
1 µg/mL

Please look at CC(=O)NC[C@H]1CN(c2ccc(N3CCN(C(c4ccccc4)c4ccccc4)CC3)c(F)c2)C(=O)O1 and tell me its recorded MIC on Staphylococcus aureus.
16 µg/mL

###

- System: Staphylococcus epidermidis
- ASSAY_DETAILS: Compound was evaluated for minimum inhibitory concentration against Staphylococcus epidermidis 9759 strain
- Format: functional
Kindly state MIC for each of the entries shown.
Report as a plain number; the unit µg/mL is understood.

Name the recorded MIC of the molecule listed here: CC(=O)NC[C@H]1CN(c2ccc(N3CCN(c4ccccc4)CC3)c(F)c2)C(=O)O1
1

Name the recorded MIC of the molecule listed here: COc1ccc(N2CCN(c3ccc(N4C[C@H](CNC(C)=O)OC4=O)cc3F)CC2)cc1
1

Name the recorded MIC of the molecule listed here: CC(=O)NC[C@H]1CN(c2ccc(N3CCN(C(c4ccccc4)c4ccccc4)CC3)c(F)c2)C(=O)O1
16

Name the recorded MIC of the molecule listed here: CC(=O)NC[C@H]1CN(c2ccc(N3CCN(c4ccc(F)cc4)CC3)c(F)c2)C(=O)O1
1

Name the recorded MIC of the molecule listed here: CC(=O)NC[C@H]1CN(c2ccc(N3CCOCC3)c(F)c2)C(=O)O1
0.5
